assay: Permeability from apical to basolateral side of the Caco-2 cell membrane at pH 6.5; format: ADME, cell-based; settings: human, Caco-2, pH 6.5; read-out: permeability
result type: Papp A→B

Enquiry: Need Papp A→B, item O=C(C1CCN(c2ccncc2)CC1)N1CC[C@@H](CNS(=O)(=O)c2ccc(-c3ccc(Cl)s3)s2)C1
Return: < 1.5 ×10⁻⁶ cm/s

* * *

target: Cytochrome P450 2D6 (Homo sapiens)
Sequence (P10635 whole entry): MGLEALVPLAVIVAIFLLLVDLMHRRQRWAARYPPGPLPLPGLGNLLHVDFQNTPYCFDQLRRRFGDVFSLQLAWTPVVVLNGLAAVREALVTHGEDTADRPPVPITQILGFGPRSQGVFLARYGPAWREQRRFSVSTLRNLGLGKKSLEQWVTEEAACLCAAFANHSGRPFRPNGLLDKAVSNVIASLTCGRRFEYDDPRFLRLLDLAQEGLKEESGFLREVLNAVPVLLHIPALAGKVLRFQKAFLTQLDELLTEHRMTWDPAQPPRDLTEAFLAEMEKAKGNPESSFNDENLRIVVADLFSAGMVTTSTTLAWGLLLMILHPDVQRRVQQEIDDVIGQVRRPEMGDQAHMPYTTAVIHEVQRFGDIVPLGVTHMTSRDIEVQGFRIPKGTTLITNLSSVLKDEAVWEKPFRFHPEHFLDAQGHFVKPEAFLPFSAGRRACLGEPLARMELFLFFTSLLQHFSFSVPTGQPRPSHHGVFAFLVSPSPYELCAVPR
result type: pIC50
# reply with the number alone; pIC50 is -log10 of concentration in mol/L

Enquiry: Can you share its pIC50? I mean this compound: O=C(C1CCN(c2ccncc2)CC1)N1CC[C@@H](CNS(=O)(=O)c2ccc(-c3ccc(Cl)s3)s2)C1
Return: 5.10

* * *

UniProt P00742 data, read-out pIC50
Sequence (P00742 41-179 limits assumed): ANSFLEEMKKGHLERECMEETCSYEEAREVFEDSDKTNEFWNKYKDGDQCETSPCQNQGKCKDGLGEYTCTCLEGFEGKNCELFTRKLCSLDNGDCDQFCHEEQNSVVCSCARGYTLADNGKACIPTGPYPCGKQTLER
Sequence (P00742 235-488 limits assumed): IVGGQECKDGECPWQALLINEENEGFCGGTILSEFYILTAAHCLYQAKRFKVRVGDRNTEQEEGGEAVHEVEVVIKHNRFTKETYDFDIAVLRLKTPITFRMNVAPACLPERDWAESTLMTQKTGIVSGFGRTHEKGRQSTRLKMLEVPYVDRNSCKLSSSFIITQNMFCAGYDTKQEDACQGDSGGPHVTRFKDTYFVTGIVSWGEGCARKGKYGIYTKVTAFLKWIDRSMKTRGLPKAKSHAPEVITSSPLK
Please express pIC50 as -log10 of the molar concentration.

# compound, pIC50
data = [
    ("O=C(C1CCN(c2ccncc2)CC1)N1CCC(CNS(=O)(=O)c2cc3ccc(Cl)cc3s2)C1 (racemic)", 6.59),
    ("O=C(N1CC[C@H](CNS(=O)(=O)c2ccc(-c3ccc(Cl)s3)s2)C1)N1CCC[C@H]1CN1CCCC1", 7.40),
    ("O=C(C(=O)N1CCC[C@H]1CN1CCCC1)N1CC[C@@H](CNS(=O)(=O)/C=C/c2ccc(Cl)s2)C1", 6.36),
]

Enquiry: Can you look up the measured pIC50 of O=C(C1CCN(c2ccncc2)CC1)N1CCC(CNS(=O)(=O)/C=C/c2cccc(Cl)c2)C1 (racemic) for me?
Return: 5.37

Enquiry: How about this compound: O=C(C1CCN(c2ccncc2)CC1)N1CCC(CNS(=O)(=O)/C=C/c2ccc(Br)s2)C1 (racemic)
Return: 7.07
